// provenance: ChEMBL document CHEMBL4823289

test: Apparent permeability across basolateral to apical side in human Caco-2 cells; assay type: ADME, cell-based
experimental readout: Papp B→A (×10⁻⁶ cm/s)
Numbers only, in ×10⁻⁶ cm/s.

I'd like to know its Papp B→A. The compound in question is "CC[C@@H](NC(=O)c1ccc(OC)nc1)[C@H]1CC[C@@H](c2ccnc(OC)c2C(F)F)CC1"
5.6

* * *

biological target: Cytochrome P450 2C9 (Homo sapiens, UniProt P11712)
Sequence (P11712 whole entry): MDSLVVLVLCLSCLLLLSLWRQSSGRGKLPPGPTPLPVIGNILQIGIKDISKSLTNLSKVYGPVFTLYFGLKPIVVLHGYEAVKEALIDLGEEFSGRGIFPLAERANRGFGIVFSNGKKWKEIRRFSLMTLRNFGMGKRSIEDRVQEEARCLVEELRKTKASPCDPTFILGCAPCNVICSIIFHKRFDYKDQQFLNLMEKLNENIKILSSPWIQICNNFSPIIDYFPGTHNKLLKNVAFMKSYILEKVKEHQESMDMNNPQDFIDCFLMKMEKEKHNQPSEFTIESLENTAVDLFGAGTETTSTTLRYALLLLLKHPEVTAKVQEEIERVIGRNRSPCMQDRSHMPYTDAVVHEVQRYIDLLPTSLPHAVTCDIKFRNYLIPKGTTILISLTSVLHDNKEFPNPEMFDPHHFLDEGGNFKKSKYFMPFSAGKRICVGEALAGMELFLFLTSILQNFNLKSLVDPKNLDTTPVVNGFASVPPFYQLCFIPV
experimental readout: pIC50
Numbers only, as −log10 of the molar value.

Query: pIC50; subject: "CC[C@@H](NC(=O)c1ccc(OC)nc1)[C@H]1CC[C@@H](c2ccnc(OC)c2C(F)F)CC1"
5.72

* * *

test: Clearance in dog at 1 mg/kg, iv; type: ADME, organism-based, Canis lupus familiaris; settings: in vivo
experimental readout: clearance (mL/min/kg)
One number for each entry, in mL/min/kg.

Consider the molecule shown here: "CC[C@@H](NC(=O)c1ccc(OC)nc1)[C@H]1CC[C@@H](c2ccnc(OC)c2C(F)F)CC1" What is its recorded clearance?
18

* * *

test: Oral bioavailability in dog at 5 mg/kg; format: ADME, organism-based, Canis lupus familiaris; settings: in vivo
experimental readout: bioavailability (%)
Numbers only, in %.

Any idea what its bioavailability is? The molecule is "CC[C@@H](NC(=O)c1ccc(OC)nc1)[C@H]1CC[C@@H](c2ccnc(OC)c2C(F)F)CC1"
28

* * *

Hi there, I'd appreciate the recorded IC50 for every entry that follows.
target: Indoleamine 2,3-dioxygenase 1 (Mus musculus); experiment: Inhibition of IDO1 in IFNgamma-stimulated mouse M109 cells preincubated for 2 hrs followed by recombinant murine IFNgamma stimulation and measured after 18 hrs by fluorescence based microplate reader assay
Sequence (P28776 whole entry): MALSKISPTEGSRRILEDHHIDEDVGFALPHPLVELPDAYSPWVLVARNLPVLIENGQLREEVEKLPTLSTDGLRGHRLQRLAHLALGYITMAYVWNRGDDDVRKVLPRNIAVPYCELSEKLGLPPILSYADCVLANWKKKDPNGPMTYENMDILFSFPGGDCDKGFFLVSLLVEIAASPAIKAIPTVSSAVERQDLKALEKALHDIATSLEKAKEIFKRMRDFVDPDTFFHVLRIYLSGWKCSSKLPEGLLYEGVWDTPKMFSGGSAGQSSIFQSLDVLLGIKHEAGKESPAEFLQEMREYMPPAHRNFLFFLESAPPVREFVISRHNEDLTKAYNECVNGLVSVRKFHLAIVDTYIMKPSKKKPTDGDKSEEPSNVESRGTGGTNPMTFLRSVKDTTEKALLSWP
Give bare numbers, in nM.

Examples with their reported IC50 follow.
* CC[C@@H](NC(=O)c1ccc(Cl)cc1)[C@H]1CC[C@@H](c2cccc3c2OC(F)(F)O3)CC1 | 196
* Cc1c(F)nccc1[C@H]1CC[C@@H]([C@@H](C)NC(=O)c2ccc(Cl)cc2)CC1 | 3
* CC[C@@H](NC(=O)c1ccc(Cl)cc1)[C@H]1CC[C@@H](c2ccnc(OC)c2C)CC1 | 7

Look up IC50 for the entries below, preserving their order.
1. Cc1cc([C@H]2CC[C@@H]([C@@H](C)NC(=O)c3ccc(Cl)cc3)CC2)ccn1
2. COC[C@@H](NC(=O)c1ccc(Cl)cc1)[C@H]1CC[C@@H](c2ccnc(OC)c2C(F)F)CC1
3. CC[C@@H](NC(=O)c1ccc(Cl)cc1)[C@H]1CC[C@H](c2ccc(OC(F)F)cc2)CC1
4. CC[C@@H](NC(=O)c1ccc(Cl)cc1)[C@H]1CC[C@H](c2cccc(C)n2)CC1
5. CC[C@@H](NC(=O)c1ccc(Cl)cc1)[C@H]1CC[C@H](c2cncc(OC)c2)CC1
6. CC[C@@H](NC(=O)c1ccc(Cl)cc1)[C@H]1CC[C@H](c2nccc(OC)n2)CC1
7. CC[C@@H](NC(=O)c1ccc(Cl)cc1)[C@H]1CC[C@@H](c2ccnc(OC)c2C(F)F)CC1

16
11
75
121
31
193
6

* * *

assay: Volume of steady state distribution in rat at 0.5 mg/kg, iv; type: ADME, organism-based; conditions: in vivo, read-out: Vdss
experimental readout: Vd (L/kg)
One number for each entry, in L/kg.

Fill blank: measured Vd of the molecule "CC[C@@H](NC(=O)c1ccc(OC)nc1)[C@H]1CC[C@@H](c2ccnc(OC)c2C(F)F)CC1" is ____.
4
